Test system: U-87 MG and U-251 MG glioma cells
Protocol Text: Cell viability assay (MTT), CPT-11 and Delta-24, results stated for both cell lines
Assay type: cell-based, human
Condition Parameters: Homo sapiens, read-out: IC50 for CPT-11, both U-87 MG and U-251 MG cells infected with 2 MOIs of Delta-24
pIC50: −log10 of the molar value.
Observable: pIC50

>  <Molecule>
CCc1c2c(nc3ccc(OC(=O)N4CCC(N5CCCCC5)CC4)cc13)-c1cc3c(c(=O)n1C2)COC(=O)[C@]3(O)CC [CPT-11, irinotecan]

>  <Value>
5.60

$$$$
